Reported values of solubility thermodynamic for individual entries
Assay: Thermodynamic solubility measured at pH 7.4
Type: ADME
Conditions: buffer
measurement-kind: solubility thermodynamic

O=C(N[C@@H](C(=O)O)c1ccccc1)c1cc(-c2ccc(-c3ccncc3)cc2)cs1 : > 500 µg/mL
O=C(NCCN1CCOCC1)c1cc(-c2ccc(-c3ccncc3)cc2)cs1 : 3 µg/mL
O=C(N[C@H](C(=O)O)c1ccccc1)c1cc(-c2ccc(OC(F)(F)F)cc2)cs1 : > 500 µg/mL
O=C(NCCN1CCOCC1)c1cc(-c2ccc(-c3ccccc3)cc2)cs1 : < 1 µg/mL
CC(=O)c1ccc(-c2ccc(-c3csc(C(=O)NCCN4CCOCC4)c3)cc2)cc1 : < 1 µg/mL
